- TEST SUMMARY: biodistribution and PET/CT in ZR-75-1 tumor-bearing NOD scid gamma mice
- MEASUREMENT PARAMETERS: female, NOD scid gamma (NOD.Cg-Prkdc^sci Il2rg^tm1Wjl/SzJ), mouse, in vivo, iv, total radioactivity, Pancreas uptake
ASSAY READOUT: tissue uptake at 1 h (%ID/g)
Give just the number in %ID/g; leave the unit off.

[
  {
    "COMPOUND": "C[C@@H](O)[C@H](NC(=O)[C@@H]1CSSC[C@H](NC(=O)[C@@H](Cc2ccccc2)NC(=O)CN2CCN(CC(=O)O)CCN(CC(=O)O)CCN(CC(=O)O)CC2)C(=O)N[C@@H](Cc2ccc(O)cc2)C(=O)N[C@H](Cc2c[nH]c3ccccc23)C(=O)N[C@@H](CCCCN)C(=O)N[C@@H]([C@@H](C)O)C(=O)N1)C(=O)O [^68Ga-DOTATATE, ^68Ga-DOTA-Tyr^3-octreotate, metal not drawn]",
    "tissue uptake at 1 h / %ID/g": 51.6
  },
  {
    "COMPOUND": "C[C@@H](O)[C@@H]1NC(=O)[C@H](CCCCN)NC(=O)[C@@H](Cc2c[nH]c3ccccc23)NC(=O)[C@H](Cc2ccc(O)cc2)NC(=O)[C@@H](NC(=O)[C@@H](Cc2ccccc2)NC(=O)CN2CCN(CC(=O)O)CCN(CC(=O)O)CCN(CC(=O)O)CC2)CSSC[C@@H](C(=O)N[C@H](CO)[C@@H](C)O)NC1=O [^68Ga-DOTATOC, ^68Ga-DOTA-Tyr^3-octreotide, metal not drawn]",
    "tissue uptake at 1 h / %ID/g": 11
  }
]

Query compound follows.
tissue uptake at 1 h for C[C@@H](O)[C@@H]1NC(=O)[C@H](CCCCN)NC(=O)[C@@H](Cc2ccc(NC(N)=O)cc2)NC(=O)[C@H](Cc2ccc(NC(=O)[C@@H]3CC(=O)NC(=O)N3)cc2)NC(=O)[C@H](NC(=O)[C@H](Cc2ccc(Cl)cc2)NC(=O)CCC(C(=O)O)N2CCN(CC(=O)O)CCN(CC(=O)O)CC2)CSSC[C@@H](C(=O)N[C@H](Cc2ccc(O)cc2)C(N)=O)NC1=O (stereo partly drawn) [^68Ga-NODAGA-JR11, metal not drawn] is 9.29

====

- TEST SUMMARY: biodistribution and PET/CT in ZR-75-1 tumor-bearing NOD scid gamma mice
- MEASUREMENT PARAMETERS: female, NOD scid gamma (NOD.Cg-Prkdc^sci Il2rg^tm1Wjl/SzJ), mouse, in vivo, iv, total radioactivity, Intestines uptake
ASSAY READOUT: tissue uptake at 1 h (%ID/g)
Number in %ID/g, nothing else.

[
  {
    "COMPOUND": "C[C@@H](O)[C@H](NC(=O)[C@@H]1CSSC[C@H](NC(=O)[C@@H](Cc2ccccc2)NC(=O)CN2CCN(CC(=O)O)CCN(CC(=O)O)CCN(CC(=O)O)CC2)C(=O)N[C@@H](Cc2ccc(O)cc2)C(=O)N[C@H](Cc2c[nH]c3ccccc23)C(=O)N[C@@H](CCCCN)C(=O)N[C@@H]([C@@H](C)O)C(=O)N1)C(=O)O [^68Ga-DOTATATE, ^68Ga-DOTA-Tyr^3-octreotate, metal not drawn]",
    "OBSERVED RESULT": 7.35
  }
]

compound C[C@@H](O)[C@@H]1NC(=O)[C@H](CCCCN)NC(=O)[C@@H](Cc2c[nH]c3ccccc23)NC(=O)[C@H](Cc2ccc(O)cc2)NC(=O)[C@@H](NC(=O)[C@@H](Cc2ccccc2)NC(=O)CN2CCN(CC(=O)O)CCN(CC(=O)O)CCN(CC(=O)O)CC2)CSSC[C@@H](C(=O)N[C@H](CO)[C@@H](C)O)NC1=O [^68Ga-DOTATOC, ^68Ga-DOTA-Tyr^3-octreotide, metal not drawn] , tissue uptake at 1 h observed: 2.39

// field: tissue uptake at 1 h; key: C[C@@H](O)[C@@H]1NC(=O)[C@H](CCCCN)NC(=O)[C@@H](Cc2ccc(NC(N)=O)cc2)NC(=O)[C@H](Cc2ccc(NC(=O)[C@@H]3CC(=O)NC(=O)N3)cc2)NC(=O)[C@H](NC(=O)[C@H](Cc2ccc(Cl)cc2)NC(=O)CCC(C(=O)O)N2CCN(CC(=O)O)CCN(CC(=O)O)CC2)CSSC[C@@H](C(=O)N[C@H](Cc2ccc(O)cc2)C(N)=O)NC1=O (stereo partly drawn) [^68Ga-NODAGA-JR11, metal not drawn] ; value = 0.9

====

- TEST SUMMARY: biodistribution and PET/CT in ZR-75-1 tumor-bearing NOD scid gamma mice
- MEASUREMENT PARAMETERS: female, NOD scid gamma (NOD.Cg-Prkdc^sci Il2rg^tm1Wjl/SzJ), mouse, in vivo, iv, total radioactivity, Fat uptake
This listing pairs compounds with measured tissue uptake at 1 h.
Give the value in %ID/g but do not write %ID/g after it.

[
  {
    "COMPOUND": "C[C@@H](O)[C@H](NC(=O)[C@@H]1CSSC[C@H](NC(=O)[C@@H](Cc2ccccc2)NC(=O)CN2CCN(CC(=O)O)CCN(CC(=O)O)CCN(CC(=O)O)CC2)C(=O)N[C@@H](Cc2ccc(O)cc2)C(=O)N[C@H](Cc2c[nH]c3ccccc23)C(=O)N[C@@H](CCCCN)C(=O)N[C@@H]([C@@H](C)O)C(=O)N1)C(=O)O [^68Ga-DOTATATE, ^68Ga-DOTA-Tyr^3-octreotate, metal not drawn]",
    "ASSAY READOUT": "tissue uptake at 1 h",
    "OBSERVED RESULT": 0.28
  },
  {
    "COMPOUND": "C[C@@H](O)[C@@H]1NC(=O)[C@H](CCCCN)NC(=O)[C@@H](Cc2ccc(NC(N)=O)cc2)NC(=O)[C@H](Cc2ccc(NC(=O)[C@@H]3CC(=O)NC(=O)N3)cc2)NC(=O)[C@H](NC(=O)[C@H](Cc2ccc(Cl)cc2)NC(=O)CCC(C(=O)O)N2CCN(CC(=O)O)CCN(CC(=O)O)CC2)CSSC[C@@H](C(=O)N[C@H](Cc2ccc(O)cc2)C(N)=O)NC1=O (stereo partly drawn) [^68Ga-NODAGA-JR11, metal not drawn]",
    "ASSAY READOUT": "tissue uptake at 1 h",
    "OBSERVED RESULT": 0.23
  }
]

Kindly review the next compound as well.
Please fill in: tissue uptake at 1 h reported for C[C@@H](O)[C@@H]1NC(=O)[C@H](CCCCN)NC(=O)[C@@H](Cc2c[nH]c3ccccc23)NC(=O)[C@H](Cc2ccc(O)cc2)NC(=O)[C@@H](NC(=O)[C@@H](Cc2ccccc2)NC(=O)CN2CCN(CC(=O)O)CCN(CC(=O)O)CCN(CC(=O)O)CC2)CSSC[C@@H](C(=O)N[C@H](CO)[C@@H](C)O)NC1=O [^68Ga-DOTATOC, ^68Ga-DOTA-Tyr^3-octreotide, metal not drawn] = 0.18

====

- TEST SUMMARY: biodistribution and PET/CT in ZR-75-1 tumor-bearing NOD scid gamma mice
- MEASUREMENT PARAMETERS: female, NOD scid gamma (NOD.Cg-Prkdc^sci Il2rg^tm1Wjl/SzJ), mouse, in vivo, iv, total radioactivity, Kidneys uptake
ASSAY READOUT: tissue uptake at 1 h (%ID/g)
Only the number, expressed in %ID/g, is required.

// recorded tissue uptake at 1 h for C[C@@H](O)[C@@H]1NC(=O)[C@H](CCCCN)NC(=O)[C@@H](Cc2c[nH]c3ccccc23)NC(=O)[C@H](Cc2ccc(O)cc2)NC(=O)[C@@H](NC(=O)[C@@H](Cc2ccccc2)NC(=O)CN2CCN(CC(=O)O)CCN(CC(=O)O)CCN(CC(=O)O)CC2)CSSC[C@@H](C(=O)N[C@H](CO)[C@@H](C)O)NC1=O [^68Ga-DOTATOC, ^68Ga-DOTA-Tyr^3-octreotide, metal not drawn] : 9.3

For reference, reported tissue uptake at 1 h for C[C@@H](O)[C@@H]1NC(=O)[C@H](CCCCN)NC(=O)[C@@H](Cc2ccc(NC(N)=O)cc2)NC(=O)[C@H](Cc2ccc(NC(=O)[C@@H]3CC(=O)NC(=O)N3)cc2)NC(=O)[C@H](NC(=O)[C@H](Cc2ccc(Cl)cc2)NC(=O)CCC(C(=O)O)N2CCN(CC(=O)O)CCN(CC(=O)O)CC2)CSSC[C@@H](C(=O)N[C@H](Cc2ccc(O)cc2)C(N)=O)NC1=O (stereo partly drawn) [^68Ga-NODAGA-JR11, metal not drawn] stands at 14.1

Form: compound = C[C@@H](O)[C@H](NC(=O)[C@@H]1CSSC[C@H](NC(=O)[C@@H](Cc2ccccc2)NC(=O)CN2CCN(CC(=O)O)CCN(CC(=O)O)CCN(CC(=O)O)CC2)C(=O)N[C@@H](Cc2ccc(O)cc2)C(=O)N[C@H](Cc2c[nH]c3ccccc23)C(=O)N[C@@H](CCCCN)C(=O)N[C@@H]([C@@H](C)O)C(=O)N1)C(=O)O [^68Ga-DOTATATE, ^68Ga-DOTA-Tyr^3-octreotate, metal not drawn] ; tissue uptake at 1 h = 8.5
